Measured MIC by item
Test system: methicillin-resistant Staphylococcus pseudintermedius S-48
test_method_notes: MIC broth microdilution, MRSP S-48
Assay type: cell-based
settings: 20 hours of incubation
Provide only the numeric value, understood in mg/L.

Some solved entries appear below for comparison.
COc1ccc2nccc(CCN3CCC(NCc4ccc(OC(F)F)c(O)c4)CC3)c2n1	0.25
COc1ccc2nccc(CCN3CCC(NCc4ccc(N(C)C)cc4)CC3)c2n1	0.25
COc1ccc2nccc(CCN3CCC(NCc4ccccc4)CC3)c2n1	4
C=CCn1cc(CNC2CCN(CCc3ccnc4ccc(OC)nc34)CC2)cn1	2

So what's the measured MIC for this one? COc1ccc2nccc(CCN3CCC(NCc4ccc(Br)cc4)CC3)c2n1 0.062
